Here, each record is paired with measured Activity data.
tested on: Mus musculus; assay: Analgesic activity in Kunming Mus musculus (mouse) assessed as increase in pain threshold at 200 mg/kg, po after 1 hr by hot plate method (reference value: 4.2%); type: functional
readout label: Activity

{"columns": ["compound", "observed result"],
 "data": [
  ["COc1cccc(C2(O)/C(=C/c3ccccc3)CCCC2CN(C)c2ccccc2)c1 (racemic)", "162.71%"],
  ["COc1cccc(C2(C)/C(=C/c3ccc(C)cc3)CCCC2CN(C)c2ccccc2)c1 (racemic)", "153.01%"],
  ["COc1cccc(C2(O)/C(=C/c3ccc(C)cc3)CCCC2CN(C)c2ccc(C)cc2)c1 (racemic)", "125.34%"],
  ["COc1ccc(C2(O)/C(=C/c3ccc(C)cc3)CCCC2CN(C)c2cccc(C)c2)cc1 (racemic)", "93.52%"],
  ["Cc1ccc(N(C)CC2CCC/C(=C\\c3ccc(S(C)(=O)=O)cc3)C2=O)cc1 (stereo not drawn)", "155.12%"],
  ["COc1ccc(C2(O)/C(=C/c3ccccc3)CCCC2CN(C)c2ccc(C)cc2)cc1 (racemic)", "117.46%"],
  ["CC(C)Cc1ccc(C(C)C(=O)O)cc1 (stereo not drawn)", "158.56%"],
  ["COc1ccc(C2(O)/C(=C/c3ccccc3)CCCC2CN(C)c2ccccc2)cc1 (racemic)", "121.45%"],
  ["Cc1ccc(/C=C2\\CCCC(CN(C)c3cccc(C)c3)C2=O)cc1 (stereo not drawn)", "75.5%"],
  ["COc1cccc(C2(O)/C(=C/c3ccccc3)CCCC2CN(C)c2ccc(C)cc2)c1 (racemic)", "110.54%"],
  ["Cc1ccc(NCC2CCC/C(=C\\c3ccccc3)C2=O)cc1 (stereo not drawn)", "166.19%"],
  ["Cc1cccc(N(C)CC2CCC/C(=C\\c3ccccc3)C2(O)c2ccccc2)c1 (racemic)", "83.22%"],
  ["Cc1cccc(N(C)CC2CCC/C(=C\\c3ccc(S(C)(=O)=O)cc3)C2=O)c1 (stereo not drawn)", "109.98%"],
  ["COc1ccc(C2(O)/C(=C/c3ccc(C)cc3)CCCC2CN(C)c2ccc(C)cc2)cc1 (racemic)", "93.41%"],
  ["COc1cccc(C2(O)/C(=C/c3ccccc3)CCCC2CN(C)c2cccc(C)c2)c1 (racemic)", "116.52%"],
  ["CN(CC1CCC/C(=C\\c2ccccc2)C1=O)c1ccccc1 (stereo not drawn)", "109.59%"],
  ["CN(CC1CCC/C(=C\\c2ccc(S(C)(=O)=O)cc2)C1=O)c1ccccc1 (stereo not drawn)", "142.7%"],
  ["Cc1ccc(/C=C2\\CCCC(CN(C)c3ccc(C)cc3)C2=O)cc1 (stereo not drawn)", "71.6%"]
]}

----------
Here, each record is paired with measured inhibition in vivo at 200 mg/kg data.
system: Mus musculus; experiment: Analgesic activity in Kunming Mus musculus (mouse) assessed as inhibition of acetic acid-induced writhing at 200 mg/kg, po administered 1 hr prior to acetic acid challenge measured for 15 min relative to untreated control; assay type: functional
readout label: inhibition in vivo at 200 mg/kg (%)

{"columns": ["compound", "measurement target", "observed result"],
 "data": [
  ["Cc1ccc(N(C)CC2CCC/C(=C\\c3ccccc3)C2=O)cc1 (centres undefined)", "Mus musculus", 81],
  ["Cc1ccc(/C=C2\\CCCC(CN(C)c3cccc(C)c3)C2=O)cc1 (centres undefined)", "Mus musculus", 75.8],
  ["COc1ccc(C2(O)/C(=C/c3ccccc3)CCCC2CN(C)c2ccccc2)cc1 (racemic)", "Mus musculus", 75.7],
  ["COc1ccc(C2(O)/C(=C/c3ccc(C)cc3)CCCC2CN(C)c2ccc(C)cc2)cc1 (racemic)", "Mus musculus", 62.2],
  ["COc1cccc(C2(O)/C(=C/c3ccccc3)CCCC2CN(C)c2ccc(C)cc2)c1 (racemic)", "Mus musculus", 77.8],
  ["CC(C)Cc1ccc(C(C)C(=O)O)cc1 (centres undefined)", "Mus musculus", 84.1],
  ["Cc1ccc(/C=C2\\CCCC(CN(C)c3ccc(C)cc3)C2=O)cc1 (centres undefined)", "Mus musculus", 76.5],
  ["Cc1cccc(N(C)CC2CCC/C(=C\\c3ccccc3)C2(O)c2ccccc2)c1 (racemic)", "Mus musculus", 70.6],
  ["CN(CC1CCC/C(=C\\c2ccc(S(C)(=O)=O)cc2)C1=O)c1ccccc1 (centres undefined)", "Mus musculus", 81],
  ["Cc1ccc(N(C)CC2CCC/C(=C\\c3ccc(S(C)(=O)=O)cc3)C2=O)cc1 (centres undefined)", "Mus musculus", 84.5],
  ["COc1cccc(C2(C)/C(=C/c3ccc(C)cc3)CCCC2CN(C)c2ccccc2)c1 (racemic)", "Mus musculus", 80.9],
  ["Cc1ccc(N(C)CC2CCC/C(=C\\c3ccccc3)C2(O)c2ccccc2)cc1 (racemic)", "Mus musculus", 64.2],
  ["COc1cccc(C2(O)/C(=C/c3ccc(C)cc3)CCCC2CN(C)c2ccc(C)cc2)c1 (racemic)", "Mus musculus", 81.6],
  ["COc1ccc(C2(O)/C(=C/c3ccccc3)CCCC2CN(C)c2ccc(C)cc2)cc1 (racemic)", "Mus musculus", 78.7],
  ["COc1cccc(C2(O)/C(=C/c3ccccc3)CCCC2CN(C)c2ccccc2)c1 (racemic)", "Mus musculus", 82.2],
  ["Cc1cccc(N(C)CC2CCC/C(=C\\c3ccccc3)C2=O)c1 (centres undefined)", "Mus musculus", 76.7],
  ["COc1ccc(C2(O)/C(=C/c3ccc(C)cc3)CCCC2CN(C)c2ccccc2)cc1 (racemic)", "Mus musculus", 72.1],
  ["COc1cccc(C2(O)/C(=C/c3ccccc3)CCCC2CN(C)c2cccc(C)c2)c1 (racemic)", "Mus musculus", 79.9],
  ["Cc1ccc(NCC2CCC/C(=C\\c3ccccc3)C2=O)cc1 (centres undefined)", "Mus musculus", 82.8]
]}
